Recorded log10 koff for the following binders
Target: T1, Recombinant human CD4 (R&D Systems, Cat. 10327-CD) (human, UniProt P01730 26-390, limits assumed)
T1 construct: Soluble analyte in the Octet assay
Assay: BLI Octet, mAb on anti-mouse Fc sensor, CD4 100/50/25 nM, 1:1 global fit;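 note: antibodies loaded at 10 µg/mL, an unrelated mouse-derived antibody served as internal reference control, association and dissociation phases fitted after Savitzky-Golay smoothing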
parameter: log10 koff (log10 of the value in s⁻¹)

binder: 75110_02E08A (antibody, V domains shown, Tested as antibody purified from AlivaMab Mouse hybridoma supernatant (captured by anti-mouse IgG Fc)) VH: QVQLQESGPGLVKPSETLSLTCTVSGGSISTYYWTWIRQPAGKGLEWIGRVYTSGDTNYNPSLKSRVAMSLDTSKNQFSLKLSSVTAADTAVYYCARDSGALYSWNYGDAFDIWGQGTMVTVSS VL: DIQMTQSPSAMSASVGDRVTITCRASQDISNYLAWFQQKPGKVPKRLIYAASSLQSGVPSRFSGSGSGTEFTLTISSLQPEDFATYYCLQHNSYPRTFGQGTKVEIK
log10 koff: -3.21
--
binder: 75110_01C18A (antibody, V domains shown, Tested as antibody purified from AlivaMab Mouse hybridoma supernatant (captured by anti-mouse IgG Fc)) VH: EVQLVESGGGLIQPGGSLRLSCAASGFTVSSNYMNWVRQAPGKGLEWVSVIYAGDNTYSADSVKGRFTISRDNSNNTLCLQMNSLRAEDTAVYYCAREGGTTGAFDIWGQGTMVTVSS VL: DIQMTQSPSSVSASVGDRVTITCRASQGINSWLAWYQQKPGKAPKLLIYAASSLQSGVPSRFSGSGSGTDFTLTISSLQPEDFATYYCQQGNSFPYTFGQGTKLEIK
log10 koff: -2.33
--
binder: 75110_03C01A (antibody, V domains shown, Tested as antibody purified from AlivaMab Mouse hybridoma supernatant (captured by anti-mouse IgG Fc)) VH: QVQLQQWGAGLLKPSETLSLTCAVYGGSFSGYYWSWIRQSPGKGLEWIGEINQSGSTNYNPSLKSRVTISVDTSKDQFSLKLSSVTAADTAVYYCARVINWFDSWGQGSLVTVSS VL: DIQMTQSPSSVSASVGDRVTITCRASQGISSWLAWYQQKPGNAPKLLIYDASSFQSGVPSRFSGSGSGTDFTLTISSLQTEDFATYYCQQANSFPYTFGQGTKLEIK
log10 koff: -3.40
--
binder: 75110_02I18A (antibody, V domains shown, Tested as antibody purified from AlivaMab Mouse hybridoma supernatant (captured by anti-mouse IgG Fc)) VH: EVQVVESGGGLVQPGGSLRLSCAASGFTFSSYDMHWVRQATGKGLEWVSTIGTAGDTYYPGSVKGRFTISRENAKNSLYLQMNSLRAGDTAVYYCARGGYYYYGMDVWGQGTTVTVSS VL: EIVLTQSPGTLSLSPGERATLSCRASQSVSSSYLAWYQQKPGQSPRLLIHGASSRATGIPDRVSGSGSGTDFTLTISRLEPEDFAVYYCQQYGSSPFTFGPGTKVDIK
log10 koff: -4.07
--
binder: 75110_03D16A (antibody, V domains shown, Tested as antibody purified from AlivaMab Mouse hybridoma supernatant (captured by anti-mouse IgG Fc)) VH: EVQLVESGGGLVQPGGSLRLSCAASGFTFSSYWMSWVRQAPGKGLEWVANINQDGGEKYYVDSVKGRFTISRDNAKNSLYLQMNSLRAEDTAVYYCVREGGQWLALDYWGQGTLVTVSS VL: DIQMTQSPSSVSASVGDRVTITCRASQGISSWLTWYQQKPGKAPKFLIYAASSLQSGVPSRFSGSGFGTDFTLTISSLQPEDFATYYCQQANSFPWTFGQGTKVEIK
log10 koff: -3.10
--
binder: 75110_03I08A (antibody, V domains shown, Tested as antibody purified from AlivaMab Mouse hybridoma supernatant (captured by anti-mouse IgG Fc)) VH: QVQLQESGPGLVKPSETLSLTCTVSGGSISSYYWSWIRQPPGKGLEWIGYIYYSGSTNYNPSLKSRVTISVDTSKNQFSLKLSSVTAADTAVYYCAREGEQWFYGLDVWGQGTTVTVSS VL: EIVLTQSPGTLSLSPGERATLSCRASQSVSSTYLAWYQQKPGQAPRLLIYGSSSRATGIPDRFSGSGSGTDFTLTISRLEPEDFAVYYCQQYGNSFPITFGQGTRLEIK
log10 koff: -2.96
--
binder: 75110_01J09A (antibody, V domains shown, Tested as antibody purified from AlivaMab Mouse hybridoma supernatant (captured by anti-mouse IgG Fc)) VH: EVQLVESGGGLVQPGGSLRLSCVASGFTFSSYWMSWVRQAPGKGLEWVANTKEDGSDKYYVDSVKGRFTICRDNAKNSLYLQMNSLRAEDTAVYYCAREGGQWLALDYWGQGTLVTVSS VL: DIQMTQSPSSVSASVGDRVTINCRASQGISSWLAWYQQKPGKAPNLLIFGASSLQSGVPSRFSGSGFGTDFSLTITTLQPEDFATYHCQQANSFPWTFGQGTKVEIK
log10 koff: -2.32
--
binder: 75110_02I16A (antibody, V domains shown, Tested as antibody purified from AlivaMab Mouse hybridoma supernatant (captured by anti-mouse IgG Fc)) VH: QVQLQQWGAGLLKPSETLSLTCDVYGGSFSGYYWTWIRQPPGKGLEWIGEINHSGTTNSNPSLKSRVTISVDTSKSQFSLRLSSVTAADTAVYFCTRELNWFDPWGQGTLVTVSS VL: DIQMTQSPSSVSASVGDRVTITCRASQDIANWLAWYQQKPGKAPQLLIYAASSLLGGVPSRFSGSGSGADFTLTISSLHPEDFATYYCQQANSFPYTFGQGTKLEIK
log10 koff: -3.40
--
binder: 75110_01G11A (antibody, V domains shown, Tested as antibody purified from AlivaMab Mouse hybridoma supernatant (captured by anti-mouse IgG Fc)) VH: EVQLVESGGGLVQPGGSLRLSCAASGFTFSSYDMHWVRQATGKGLEWVSTIGTAGDTYYPGSVKGRFTISRENARNSLFLQMNSLRAGDTAVYYCARGGDYYYGMDVWGQGTTVTVSS VL: EIVLTQSPGTLSLFPGERATLSCRASQNTYSSYLAWYQQKPGQAPRLLIYGASNRATGIPDRFSGSGSGTDFTLTISRLEPEDFAVYYCQQHGTSPFTFGPGTKVDIK
log10 koff: -4.14
--
binder: 75110_05A11A (antibody, V domains shown, Tested as antibody purified from AlivaMab Mouse hybridoma supernatant (captured by anti-mouse IgG Fc)) VH: EVQLVESGGGLVKPGGSLTLSCAASGFTFSNTWMSWVRQAPGKGLEWVGRIKSKIDGGTTDYAAPVKGRFTISRDDSKNTLYLQMNSLKTEDTAVYYCTTSGTYSSGWGLFDYWGQGTLVTVSS VL: DIQMTQSPSSLSASVGDRVTITCQASQDISNYLNWYQQKPGKAPKLLIYDTSNLEAGVPSRFSGSGSGTHFTLTISSLQPEDIATYYCQQYDNLPFTFGGGTRVEIK
log10 koff: -2.74
